Reported values of apparent KD of MS2 coat protein for individual entries
Test system: MS2 coat protein
assay-info: apparent KD of MS2 coat protein; higher = weaker reporter binding
particulars: Eterna round: R107; input ligand: tryptophan 2.4 mM
Write the value in µM as a bare number.

INSERT INTO measurements (sequence_data, readout_unit, reported_measurement) VALUES
  ('CCGCCCACGAAUGAUACCAGCUAAAAUCAUGUACCAGACACAUGAGGAUCACCCAUGUAAAGCCCUUGGCAGCGUACGCCACCCG [e-theoB-?]', 'µM', 0.0258),
  ('CGCAACCCACAUGAGGAUCACCCAUGUGAAGGAGCGGCGAAUAAGCCAGGUAGGUCGCGCAUGAAUAAAUCAUGUAGGAAGCGAA [XArg-A 7 V1&2]', 'µM', 0.0225),
  ('AUAAUAAGGUGAUCCUAAGUCGUACCGUAACGAGGACCGGUACGGCCGCCACUCGAACAUGAGGAUCACCCAUGUAUGUACGACA [M''-T''-T-MS2-T'''' - Design 6]', 'µM', 0.0759),
  ('ACAUGAGGAUCACCCAUGUGGCGUCUUGAUACCAGACCCGAAGUAGUCCCUUGGCAGCAACUACGUGAGGGUCGCCCAUGUGUAG [k''kmullin]', 'µM', 0.0255),
  ('UAUCCACAUGAGGAUCACCCAUGUAGGGAAGGAGCGGUGAUUUCACCAGGUAGGUCGCCUUACUGAGGAGAGCCGGUGGAAUCGU [Exclusion - Arginine A (Freestyle 31)]', 'µM', 0.0316);

Problem: Respond only with apparent KD of MS2 coat protein recorded for GGGUACAUCGCGGCCGCCACUCAUGUAAAUGCAUGAGGAACACCCAUGCCGAUGGAGACAUCGGAGAGGACCGGGUGAUGUACCG
Result: 0.0937

Problem: Respond only with apparent KD of MS2 coat protein recorded for UGUAUGUGAUUUGAUACCAGACCAGCGGGUGUUACUUGAGGAACACCCAAGUAGGUUUGGGUCCCUUGGCAGCAAAUCGCAUACU [SS Theo B #24 Ms9]
Result: 0.079

Problem: Respond only with apparent KD of MS2 coat protein recorded for CGGCCCUCACCUGAGGAACACCCAGGUGAUACCAGCCUGGAAACAGGCCCUUGGCAGCACCAGGUCAUCAAAGAUGACCAAGCCG [TheoAX 24 #SwitchBubble #AlternativeMS2]
Result: 0.0192

Problem: Respond only with apparent KD of MS2 coat protein recorded for GAUGAACUAUAUGAUACCAGACAACAUGAGGAUCACCCAUGUGUAUGUCGUCCUCUGCCUGUCCCUUGGCAGCGUAUAGUUUAUC [XTheo B #17]
Result: 0.0161
